METHOD_SUMMARY: yeast display, Sf9 membrane polyspecificity reagent, FACS + sequencing; frameworks hold sequencing errors
RECORDED_ENDPOINT: polyreactivity (PSR sort gate)

RESIDUE_CODES: QVQLVESGGGLVQAGGSLRLSCAASGLISTYYVMGWYRQAPGQERELVAAIRASDASTYYADSVKGRFTISRDNAKNPVYLQMHSLKPEDTAVYYCAAETGFYSRFAFHRYNYWGQGTQVTVSS
REPORTED_MEASUREMENT: low polyreactivity
--
RESIDUE_CODES: QVQLVESGGGLVQAGGILRLSCAASGLTFAKNAMGWYRQAPGKERELVAAITTGGSTYYADSVKGRFTISRDNAKNTVYLQMNSLKPEDTAVYYCAAQILVRHIPYYFWGQGSQVTVSS
REPORTED_MEASUREMENT: high polyreactivity
--
RESIDUE_CODES: QVQLGESGGGIVQAGGSLRLSCAASGRTFPYNVMGWYRQAPGKERELVAGITGSGDSTFYADSVKGRFTISRDHAKNTVYLQMNSLKPEDTAVYYCAARYRTLNDGYIRNYWGQGTQVTVSS
REPORTED_MEASUREMENT: low polyreactivity
--
RESIDUE_CODES: QVQLVESGGGLVQAGGSLRLSCAASGFTFRDYVMGWYTQAPGKERELVAAISRSGASTYYADSVKGRFTISRDNAKNTVYLQMNSLKPEDTAVYYCAKTQAGYSPGTYDYWGQGTQVTVSS
REPORTED_MEASUREMENT: high polyreactivity
--
RESIDUE_CODES: QVQIVESGGGLVQPGCSLRLSCAASGRIFYVYAMGWYRQAPGTEWELVASITNGGRTNYADSVKGRFTISRDNAKNTFYLQMNSLKPEDTAVYYCATAASNYLDYVGKYRYDYWVQGTQVTVSS
REPORTED_MEASUREMENT: low polyreactivity
--
RESIDUE_CODES: QVQLVESGGGLVQAGGSLRLSCPASGSIFYFYGMGWYRQAPGKEREFVAAISLYGGSTYYADSVKGRFTISRDNAKNTVYFQMNSLKPEDTAVYYCAARAWSYYHGKEDYWGQGTQVTVSS
REPORTED_MEASUREMENT: high polyreactivity
--
RESIDUE_CODES: QVQLVESGGGLVQAGGSLRLSCAASGSIFGSNTMGWYRQAPGKEREFVAAISFSGGSTYYADSVKGRFTISRDNAKNTVYLQMNSLKPEDTAVYYCAARQRRVGTSFYSSRRDYWGQGTQVTVSS
REPORTED_MEASUREMENT: high polyreactivity
--
RESIDUE_CODES: QVQLVESGGGIVQAGGSLRLICDASGLIFTLYAMGWYRQAPGKETELVAAIDDGGRTYYADSVKGRFTISRDNAKNTVYLQMNSMIPEDTAVYYGAAVWLAVYSVWTDHHYDYWGQGTQVTVSS
REPORTED_MEASUREMENT: low polyreactivity
--
RESIDUE_CODES: QDQLVESGGGLVQAGGSLRLICAASGSIFTSNAMGWYRQAAGKERELVAAITSSGGSTYYADSVKGRFTISRDNAKNTVYLHMNSLKPEYTAVYYCAAAKFDLSFWLYYWGQGTQVTVSS
REPORTED_MEASUREMENT: low polyreactivity
--
RESIDUE_CODES: QVQLVESGGGLVQAGGSLRLSCAASGLIFAEYTMGWYRQAPGKERELVAAISWNGGSTYYADSVKGRFTISRDNAKNTVYLQMNSLKPEDTAVYYCAARYKRVKWYRYEYWGQGTQVTVSS
REPORTED_MEASUREMENT: high polyreactivity
--
RESIDUE_CODES: QVQLVESGGGLVQAGGSLRLSCAASGSIFGLYAMGWYRQAPGNERELVAAINQSGGSTSYADSVKGRFTISRDNAKNTVYLQMNSLKPEDTAVYYCAAKRSWGATRRAYGRYDYWGQGTQVTVSS
REPORTED_MEASUREMENT: low polyreactivity
